Species: Rattus norvegicus
measurement.description: DrugMatrix - Regimen: Daily Repeat
Type: toxicity, organism-based, Sprague-Dawley
Design: regimen Daily Repeat, gender Male, age 6-8 weeks
condition.description: in vivo, po, 0 mg/kg, 120 h, tissue Plasma, route oral GAVAGE, dose level Control, time 5 day, vehicle 100 % WATER
# Lookup of reported LIPASE keyed by entry
# output: bare number, implied unit u/L

Solved entries:
molecule | measurement.name | measured.number
CN(C)CCC=C1c2ccccc2CCc2ccccc21 [AMITRIPTYLINE] | LIPASE | 10.83
CCN(C(C)=O)c1cccc(-c2ccnc3c(C#N)cnn23)c1 [ZALEPLON] | LIPASE | 10.83
O=c1[nH]c(=O)n(C2CCCO2)cc1F (centres undefined) [TEGAFUR] | LIPASE | 10.17

Query (molecule): NC(=O)c1cccnc1 [NIACINAMIDE] ; field requested: LIPASE
10.17

---

Organism: Rattus norvegicus
measurement.description: DrugMatrix - Regimen: Daily Repeat
Assay type: toxicity, organism-based, Sprague-Dawley
Parameters: regimen Daily Repeat, gender Male, age 6-8 weeks
condition.description: in vivo, po, 0 mg/kg, 120 h, tissue Blood, route oral GAVAGE, dose level Control, time 5 day, […]
Each entry below carries its reported ABSOLUTE MONOCYTE.

// worked examples, ABSOLUTE MONOCYTE included
compound | ABSOLUTE MONOCYTE
CCc1ccc(CCOc2ccc(CC3SC(=O)NC3=O)cc2)nc1 (stereo unspecified) | 141.33 CELLS/uL
CC(=O)Oc1ccccc1C(=O)O | 90.5 CELLS/uL
O=c1c(-c2ccc(O)cc2)coc2cc(O)cc(O)c12 | 82.83 CELLS/uL
CC(C)c1c(C(=O)Nc2ccccc2)c(-c2ccccc2)c(-c2ccc(F)cc2)n1CC[C@@H](O)C[C@@H](O)CC(=O)O | 82.83 CELLS/uL
CCCCC(=O)N(Cc1ccc(-c2ccccc2-c2nnn[nH]2)cc1)[C@H](C(=O)O)C(C)C | 47 CELLS/uL

Turning now to a further record.
Need ABSOLUTE MONOCYTE of CS(=O)(=O)Nc1ccc([N+](=O)[O-])cc1Oc1ccccc1 [NIMESULIDE] , thanks.
102.67 CELLS/uL

---

Species: Rattus norvegicus
measurement.description: DrugMatrix - Regimen: Daily Repeat
Format: toxicity, organism-based, Sprague-Dawley
Set-up: regimen Daily Repeat, gender Male, age 6-8 weeks
condition.description: in vivo, po, 0 mg/kg, 72 h, tissue Blood, route oral GAVAGE, dose level Control, time 3 day, vehicle .5 % CMC
measurement.name: BASOPHIL (%)
State the answer as a number, implicitly in %.

// worked examples, BASOPHIL included
structure.smiles.string | BASOPHIL / %
C[C@]12CC[C@@H]3c4ccc(O)cc4CC[C@H]3[C@@H]1C[C@@H](O)[C@@H]2O | 0
CCCCC1=NC2(CCCC2)C(=O)N1Cc1ccc(-c2ccccc2-c2nnn[nH]2)cc1 | 0.17
C#C[C@]1(O)CC[C@H]2[C@@H]3CCC4=CC(=O)CC[C@]4(C)[C@H]3CC[C@@]21C | 0.68

Now look at this one.
So what does the record say about BASOPHIL for C[C@H]1[C@H](NC(=O)/C(=N\OC(C)(C)C(=O)O)c2csc(N)n2)C(=O)N1S(=O)(=O)O ?
0
